# Target Entity: UniProt P36896
# Sequence (P36896 whole entry, looked up): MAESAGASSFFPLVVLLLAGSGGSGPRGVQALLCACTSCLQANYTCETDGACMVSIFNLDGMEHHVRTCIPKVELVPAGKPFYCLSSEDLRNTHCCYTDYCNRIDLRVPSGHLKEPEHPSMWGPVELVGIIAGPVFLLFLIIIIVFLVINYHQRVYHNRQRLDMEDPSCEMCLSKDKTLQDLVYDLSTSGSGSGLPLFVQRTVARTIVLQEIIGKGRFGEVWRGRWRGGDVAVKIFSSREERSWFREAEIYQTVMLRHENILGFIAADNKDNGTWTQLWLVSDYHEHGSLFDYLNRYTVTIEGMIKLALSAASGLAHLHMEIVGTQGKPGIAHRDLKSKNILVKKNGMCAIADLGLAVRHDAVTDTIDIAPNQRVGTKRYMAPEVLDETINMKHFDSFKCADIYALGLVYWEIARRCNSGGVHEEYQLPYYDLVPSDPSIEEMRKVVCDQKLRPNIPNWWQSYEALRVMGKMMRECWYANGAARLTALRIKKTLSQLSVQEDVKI
# Assay: KINOMEscan competition binding
# Condition Parameters: compound 10.0 µM
Property: kinase still bound, per cent of control (%)

- Smiles Entry: "Cc1n[nH]c2ccc(-c3cncc(OC[C@@H](N)Cc4c[nH]c5ccccc45)c3)cc12"
  Target Entity: "UniProt P36896"
  Recorded Value: 100
- Smiles Entry: "COc1cc(N2CCN(C)CC2)ccc1Nc1ncc2c(n1)N(C)c1ccccc1C(=O)N2C"
  Target Entity: "UniProt P36896"
  Recorded Value: 100
- Smiles Entry: "C=CC(=O)Nc1cc(-n2c(=O)ccc3cnc4ccc(-c5cn[nH]c5)cc4c32)ccc1C"
  Target Entity: "UniProt P36896"
  Recorded Value: 100
